Source listed as patent US20240199676A1.

# System: Human Rhinovirus 1B (HRV1B) in H1-HeLa cells
# assayComment: H1-HeLa HRV-CTG 384-well Assay (Ex. Y), HRV1B
# Assay type: cell-based
# conditionSet: Rhinovirus A, HRV1B, H1-HeLa, 96 h, read-out: EC50 H1-HeLa_HRV1B_HRV-CTG 384-well Assay (per Ex. Y)
measuredAttribute: EC50
Please don't drop the unit; write it after the number.

Q: For `N#C[C@]1(COC(=O)Cc2ccccc2)O[C@@H](c2ccc3c(N)ncnn23)[C@H](O)[C@@H]1O` , what is its reported EC50?
A: 3.12 µM

* * *

Could you please report measured EC50 for the items listed next?
# Test system: Human Rhinovirus 16 (HRV16) in H1-HeLa cells
# assayComment: H1-HeLa HRV-CTG 384-well Assay (Ex. Y), HRV16
# Assay type: cell-based
# conditionSet: Rhinovirus A, 96 h; H1-HeLa cells, HRV16 MOI 0.25, 4 days, Celltiter-Glo; read-out: EC50 H1-HeLa_HRV16_HRV-CTG 384-well Assay (per Ex. Y)
# From the text: Example Y: H1-HeLa HRV-CTG 384-well Assay H1-Hela cell line (ATCC, Manassas, VA, Cat #CRL-1958) was maintained in Dulbecco's […] (DMEM) (Corning, New York, NY, Cat #15-018CM) supplemented with 10% fetal bovine serum (FBS) (Hyclone, Logan, UT, Cat #SH30071-03), and 1× Penicillin-Streptomycin-L-Glutamine (Corning, New York, NY, Cat #30-009-CI). […] Viral infection was monitored by determining viability of H1-HeLa cells as described below. […]
Report only the number, with the unit µM understood.

Q: Find EC50 (Human Rhinovirus 16 (HRV16) in H1-HeLa cells) for the entry `Cc1ccc(C(=O)OC[C@@]2(C#N)O[C@@H](c3ccc4c(N)ncnn34)[C@H](O)[C@@H]2O)cc1`
A: 23.8

Q: Find EC50 (Human Rhinovirus 16 (HRV16) in H1-HeLa cells) for the entry `CCC(CC)C(=O)Nc1ncnn2c([C@@H]3O[C@](C#N)(COC(=O)C(CC)CC)[C@@H](O)[C@H]3O)ccc12`
A: 50

Q: Find EC50 (Human Rhinovirus 16 (HRV16) in H1-HeLa cells) for the entry `CC1(CC(=O)OC[C@@]2(C#N)O[C@@H](c3ccc4c(N)ncnn34)[C@H](O)[C@@H]2O)CCC1`
A: 50

Q: Find EC50 (Human Rhinovirus 16 (HRV16) in H1-HeLa cells) for the entry `N#C[C@]1(COC(=O)C2CC2)O[C@@H](c2ccc3c(N)ncnn23)[C@H](O)[C@@H]1O`
A: 30.7

* * *

# assayComment: GI S9 stability (Ex. Z), human intestinal S9
# Type: in vitro ADME
# conditionSet: pooled intestinal S9 fractions; human intestinal S9, 1.0 mg/mL protein, 2 μM substrate, pH 7.4; read-out: GIS9 Human T½ (per Ex. Z)
Could you please report measured half-life at 2 μM for the items listed next?
Report only the number, with the unit min understood.

Q: For `CC1(CC(=O)OC[C@@]2(C#N)O[C@@H](c3ccc4c(N)ncnn34)[C@H](O)[C@@H]2O)CCC1` , what is its reported half-life at 2 μM?
A: 154

Q: For `CCC(C)(C)C(=O)OC[C@@]1(C#N)O[C@@H](c2ccc3c(N)ncnn23)[C@H](O)[C@@H]1O` , what is its reported half-life at 2 μM?
A: 273

Q: For `N#C[C@]1(COC(=O)CC2CCC2)O[C@@H](c2ccc3c(N)ncnn23)[C@H](O)[C@@H]1O` , what is its reported half-life at 2 μM?
A: 14

Q: For `CC(C)(C)C(=O)OC[C@@]1(C#N)O[C@@H](c2ccc3c(N)ncnn23)[C@H](O)[C@@H]1O` , what is its reported half-life at 2 μM?
A: 124

Q: For `Cc1ccc(C(=O)OC[C@@]2(C#N)O[C@@H](c3ccc4c(N)ncnn34)[C@H](O)[C@@H]2O)cc1` , what is its reported half-life at 2 μM?
A: 25

Q: For `N#C[C@]1(COC(=O)c2ccccc2)O[C@@H](c2ccc3c(N)ncnn23)[C@H](O)[C@@H]1O` , what is its reported half-life at 2 μM?
A: 27

Q: For `CC(=O)OC[C@@]1(C#N)O[C@@H](c2ccc3c(N)ncnn23)[C@H](O)[C@@H]1O` , what is its reported half-life at 2 μM?
A: 23

Q: For `CC(C)(C)CCC(=O)OC[C@@]1(C#N)O[C@@H](c2ccc3c(N)ncnn23)[C@H](O)[C@@H]1O` , what is its reported half-life at 2 μM?
A: 11

Q: For `CC1(C)CC(C(=O)OC[C@@]2(C#N)O[C@@H](c3ccc4c(N)ncnn34)[C@H](O)[C@@H]2O)C1` , what is its reported half-life at 2 μM?
A: 13

Q: For `CCC(CC)C(=O)Nc1ncnn2c([C@@H]3O[C@](C#N)(COC(=O)C(CC)CC)[C@@H](O)[C@H]3O)ccc12` , what is its reported half-life at 2 μM?
A: 56

Q: For `CC(C)C(=O)OC[C@@]1(C#N)O[C@@H](c2ccc3c(N)ncnn23)[C@H](O)[C@@H]1O` , what is its reported half-life at 2 μM?
A: 38

Q: For `N#C[C@]1(COC(=O)C2CCC2)O[C@@H](c2ccc3c(N)ncnn23)[C@H](O)[C@@H]1O` , what is its reported half-life at 2 μM?
A: 4

Q: For `CC(C)C(=O)Nc1ncnn2c([C@@H]3O[C@](C#N)(CO)[C@@H](O)[C@H]3O)ccc12` , what is its reported half-life at 2 μM?
A: 789

Q: For `N#C[C@]1(COC(=O)[C@H]2CCC(=O)O2)O[C@@H](c2ccc3c(N)ncnn23)[C@H](O)[C@@H]1O` , what is its reported half-life at 2 μM?
A: 3

Q: For `CC(C)C(=O)OC[C@@]1(C#N)O[C@@H](c2ccc3c(N)ncnn23)[C@H](OC(=O)C(C)C)[C@@H]1OC(=O)C(C)C` , what is its reported half-life at 2 μM?
A: 3

Q: For `CCC(CC)C(=O)OC[C@@]1(C#N)O[C@@H](c2ccc3c(N)ncnn23)[C@H](O)[C@@H]1O` , what is its reported half-life at 2 μM?
A: 55

Q: For `CCCC(=O)OC[C@@]1(C#N)O[C@@H](c2ccc3c(N)ncnn23)[C@H](O)[C@@H]1O` , what is its reported half-life at 2 μM?
A: 8

Q: For `CC1(C(=O)OC[C@@]2(C#N)O[C@@H](c3ccc4c(N)ncnn34)[C@H](O)[C@@H]2O)CC1` , what is its reported half-life at 2 μM?
A: 104

Q: For `CC(C)[C@H](N)C(=O)OC[C@@]1(C#N)O[C@@H](c2ccc3c(N)ncnn23)[C@H](O)[C@@H]1O` , what is its reported half-life at 2 μM?
A: 2

Q: For `CC(C)CC(=O)OC[C@@]1(C#N)O[C@@H](c2ccc3c(N)ncnn23)[C@H](O)[C@@H]1O` , what is its reported half-life at 2 μM?
A: 42

Q: For `CC(=O)OC[C@@]1(C#N)O[C@@H](c2ccc3c(N)ncnn23)[C@H](OC(C)=O)[C@@H]1OC(C)=O` , what is its reported half-life at 2 μM?
A: 5

Q: For `N#C[C@]1(COC(=O)C2CCCCC2)O[C@@H](c2ccc3c(N)ncnn23)[C@H](O)[C@@H]1O` , what is its reported half-life at 2 μM?
A: 13

Q: For `CC(C)(C)CC(=O)OC[C@@]1(C#N)O[C@@H](c2ccc3c(N)ncnn23)[C@H](O)[C@@H]1O` , what is its reported half-life at 2 μM?
A: 789

Q: For `N#C[C@]1(COC(=O)C2CC2)O[C@@H](c2ccc3c(N)ncnn23)[C@H](O)[C@@H]1O` , what is its reported half-life at 2 μM?
A: 292

Q: For `N#C[C@]1(COC(=O)C2CCCC2)O[C@@H](c2ccc3c(N)ncnn23)[C@H](O)[C@@H]1O` , what is its reported half-life at 2 μM?
A: 8

Q: For `N#C[C@]1(COC(=O)C2CC3(CCC3)C2)O[C@@H](c2ccc3c(N)ncnn23)[C@H](O)[C@@H]1O` , what is its reported half-life at 2 μM?
A: 12

Q: For `CCC(=O)OC[C@@]1(C#N)O[C@@H](c2ccc3c(N)ncnn23)[C@H](O)[C@@H]1O` , what is its reported half-life at 2 μM?
A: 29
